# Test system: NCI-H522 lung
# EXPERIMENTAL_PROTOCOL: NCI tumour cell line growth inhibition, 48 h
EXPERIMENTAL_ENDPOINT: TGI (µM)
Record the value in µM, omitting the unit from your answer.

Recorded TGI of `CN(C)CCCn1c2nc(=O)[nH]c(=O)c-2nc2cc(Cl)c(Cl)cc21` , please.
4.23

Recorded TGI of `COc1ccc(Oc2nc(C#CC(C)(C)O)nc(Oc3ccc(OC)cc3)n2)cc1` , please.
9.36

Recorded TGI of `O=C(OCCC12CC3CC(CC(C3)C1)C2)c1ccc(NCc2cc(O)ccc2O)cc1` , please.
0.35

Recorded TGI of `COc1cc2c(c(OC)c1OC)-c1ccc(OC)c(=O)cc1[C@@H](N(C)C=O)CC2` , please.
0.0438
